Target: OCTN2 (organic cation/carnitine transporter 2) (Homo sapiens)
Experiment: TP_TRANSPORTER: inhibition of Carnitine uptake (Carnitine: 0.010? uM, Valproic acid: 500 uM) in OCTN2-expressing HEK293 cells
Format: functional, cell-based
Set-up: scale not given: the % may be the effect or the level left
Details: HEK293 cells that express OCTN2, probe Carnitine, read-out: Activity

[
  {
    "MOLECULE": "CCCC(CCC)C(=O)O [VALPROIC ACID]",
    "activity at 500 µM (%)": 82.3
  }
]

---

Molecular target: OCTN2 (organic cation/carnitine transporter 2) (Homo sapiens)
Sequence (O76082 whole entry): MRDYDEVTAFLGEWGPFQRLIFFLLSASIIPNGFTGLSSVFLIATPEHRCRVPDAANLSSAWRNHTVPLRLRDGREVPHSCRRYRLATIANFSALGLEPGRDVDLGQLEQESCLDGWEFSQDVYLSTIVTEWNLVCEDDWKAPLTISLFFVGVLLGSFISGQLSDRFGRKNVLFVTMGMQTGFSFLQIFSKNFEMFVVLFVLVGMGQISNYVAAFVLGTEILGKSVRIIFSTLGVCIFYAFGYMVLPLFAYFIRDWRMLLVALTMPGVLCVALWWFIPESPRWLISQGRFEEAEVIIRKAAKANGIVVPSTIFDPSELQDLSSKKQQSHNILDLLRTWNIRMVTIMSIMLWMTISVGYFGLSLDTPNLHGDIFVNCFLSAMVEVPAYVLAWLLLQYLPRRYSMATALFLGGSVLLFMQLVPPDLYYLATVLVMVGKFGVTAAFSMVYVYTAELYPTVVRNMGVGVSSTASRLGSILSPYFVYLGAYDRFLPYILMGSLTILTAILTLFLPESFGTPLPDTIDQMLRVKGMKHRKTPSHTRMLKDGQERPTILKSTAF
Assay: in vitro
Conditions: HEK293 cells that express OCTN2, probe Carnitine
Description: TP_TRANSPORTER: inhibition of Carnitine uptake (Carnitine: 0.010? uM, TEA: 500 uM) in OCTN2-expressing HEK293 cells
OBSERVED_PROPERTY: activity at 500 µM (%)

[
  {
    "SMILES_TEXT": "CC[N+](CC)(CC)CC",
    "OBSERVED_PROPERTY": "activity at 500 µM",
    "REPORTED_RESULT": 53.6
  }
]

---

Target: OCTN2 (organic cation/carnitine transporter 2) (Homo sapiens, UniProt O76082)
Sequence (O76082 whole entry): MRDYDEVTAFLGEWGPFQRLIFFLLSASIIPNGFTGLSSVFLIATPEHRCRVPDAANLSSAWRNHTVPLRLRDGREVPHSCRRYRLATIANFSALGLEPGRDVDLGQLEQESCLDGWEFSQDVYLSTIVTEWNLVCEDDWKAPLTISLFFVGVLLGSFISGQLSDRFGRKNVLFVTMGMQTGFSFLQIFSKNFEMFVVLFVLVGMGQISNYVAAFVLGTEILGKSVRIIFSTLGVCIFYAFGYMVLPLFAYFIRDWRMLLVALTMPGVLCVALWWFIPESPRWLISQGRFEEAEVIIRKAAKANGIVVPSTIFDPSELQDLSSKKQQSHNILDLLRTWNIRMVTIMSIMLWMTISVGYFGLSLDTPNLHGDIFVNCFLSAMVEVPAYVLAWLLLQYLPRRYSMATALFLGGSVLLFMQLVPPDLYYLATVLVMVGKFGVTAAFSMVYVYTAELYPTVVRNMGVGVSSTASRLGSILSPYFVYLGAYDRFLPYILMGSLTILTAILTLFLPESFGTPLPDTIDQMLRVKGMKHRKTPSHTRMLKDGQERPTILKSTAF
Assay: TP_TRANSPORTER: inhibition of Carnitine uptake (Carnitine: 0.010? uM, Cefsulodin: 500 uM) in OCTN2-expressing HEK293 cells
Assay type: functional, cell-based
Parameters: scale not given: the % may be the effect or the level left
Details: HEK293 cells that express OCTN2, probe Carnitine, read-out: Activity

[
  {
    "MOLECULE": "NC(=O)c1cc[n+](CC2=C(C(=O)O)N3C(=O)[C@@H](NC(=O)[C@@H](c4ccccc4)S(=O)(=O)[O-])[C@H]3SC2)cc1 [CEFSULODIN]",
    "activity at 500 µM (%)": 32.8
  }
]

---

Biological target: Organic cation/carnitine transporter 2 (Homo sapiens, UniProt O76082)
Sequence (O76082 whole entry): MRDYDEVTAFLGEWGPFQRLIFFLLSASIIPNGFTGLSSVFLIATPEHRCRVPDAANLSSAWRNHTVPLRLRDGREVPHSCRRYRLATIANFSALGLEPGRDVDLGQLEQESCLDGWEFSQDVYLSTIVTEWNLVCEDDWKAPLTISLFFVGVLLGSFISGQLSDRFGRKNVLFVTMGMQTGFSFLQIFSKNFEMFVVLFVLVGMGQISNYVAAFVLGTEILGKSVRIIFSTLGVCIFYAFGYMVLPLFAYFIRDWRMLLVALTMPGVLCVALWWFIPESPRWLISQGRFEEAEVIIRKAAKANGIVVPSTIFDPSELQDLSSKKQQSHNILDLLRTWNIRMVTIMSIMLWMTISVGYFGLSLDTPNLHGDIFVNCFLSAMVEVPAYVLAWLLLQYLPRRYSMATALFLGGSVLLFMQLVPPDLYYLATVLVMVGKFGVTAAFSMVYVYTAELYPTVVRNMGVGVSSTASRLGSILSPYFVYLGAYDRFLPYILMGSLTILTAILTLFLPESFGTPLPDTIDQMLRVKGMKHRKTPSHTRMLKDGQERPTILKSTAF
Experiment: TP_TRANSPORTER: uptake in OCTN2-expressing HEK293 cells
Type: functional, cell-based

[
  {
    "COMPOUND": "CN/C(=N/CCSCc1nc[nH]c1C)NC#N",
    "Activity": "is not a substrate [-]"
  },
  {
    "COMPOUND": "C[n+]1ccc(-c2ccccc2)cc1",
    "Activity": "is not a substrate [-]"
  },
  {
    "COMPOUND": "COc1ccc(CCN(C)CCCC(C#N)(c2ccc(OC)c(OC)c2)C(C)C)cc1OC (stereo not given)",
    "Activity": "substrate [+]"
  },
  {
    "COMPOUND": "C=C[C@H]1C[N@@]2CC[C@H]1C[C@@H]2[C@@H](O)c1ccnc2ccc(OC)cc12",
    "Activity": "substrate [+]"
  },
  {
    "COMPOUND": "CC[N+](CC)(CC)CC",
    "Activity": "substrate [+]"
  }
]

---

Target: OCTN2 (organic cation/carnitine transporter 2) (Homo sapiens, UniProt O76082)
Assay: TP_TRANSPORTER: inhibition of Carnitine uptake (Carnitine: 0.010? uM, Quinidine: 500 uM) in OCTN2-expressing HEK293 cells
Assay type: functional, cell-based
Design: scale not given: the % may be the effect or the level left
Settings: HEK293 cells that express OCTN2, probe Carnitine, read-out: Activity
OBSERVED_PROPERTY: activity at 500 µM (%)

[
  {
    "MOLECULE": "C=C[C@H]1C[N@@]2CC[C@H]1C[C@@H]2[C@@H](O)c1ccnc2ccc(OC)cc12 [QUINIDINE]",
    "MEASUREMENT_UNIT": "%",
    "REPORTED_RESULT": 9.1
  }
]

---

Molecular target: OCTN2 (organic cation/carnitine transporter 2) (Homo sapiens)
Experiment: in vitro
Settings: HEK293 cells that express OCTN2, probe Carnitine
Description: TP_TRANSPORTER: inhibition of Carnitine uptake (Carnitine: 0.010? uM, Cimetidine: 500 uM) in OCTN2-expressing HEK293 cells
OBSERVED_PROPERTY: activity at 500 µM

[
  {
    "SMILES_TEXT": "CN/C(=N/CCSCc1nc[nH]c1C)NC#N",
    "EXPERIMENTAL_TARGET": "OCTN2 (organic cation/carnitine transporter 2) (Homo sapiens)",
    "REPORTED_RESULT": "66.4%"
  }
]

---

Target: OCTN2 (organic cation/carnitine transporter 2) (Homo sapiens)
Assay: TP_TRANSPORTER: inhibition of Carnitine uptake (Carnitine: 0.010? uM, Emetine: 500 uM) in OCTN2-expressing HEK293 cells
Assay type: functional, cell-based
Set-up: scale not given: the % may be the effect or the level left
Settings: HEK293 cells that express OCTN2, probe Carnitine, read-out: Activity
OBSERVED_PROPERTY: activity at 500 µM (%)

[
  {
    "SMILES_TEXT": "CC[C@H]1CN2CCc3cc(OC)c(OC)cc3[C@@H]2C[C@@H]1C[C@H]1NCCc2cc(OC)c(OC)cc21",
    "MEASUREMENT_UNIT": "%",
    "REPORTED_RESULT": 16.6
  }
]

---

Target: OCTN2 (organic cation/carnitine transporter 2) (Homo sapiens, UniProt O76082)
Test: TP_TRANSPORTER: inhibition of Carnitine uptake (Carnitine: 0.010? uM, Actinomycin D: 100 uM) in OCTN2-expressing HEK293 cells
Assay type: functional, cell-based
Parameters: scale not given: the % may be the effect or the level left
Settings: HEK293 cells that express OCTN2, probe Carnitine, read-out: Activity
Starred links: 1 amine or outer side, 2 acyl side, 3 side chain; linkers in the order of their positions; H or OH if unused. Positions of bridges follow the written chain, without caps; N, C: chain ends. Non-standard residues stand in square brackets, D forms with d. Residues, ends and D or L forms follow the SMILES beside them. Chains are numbered I, II in the order given. Actinocin(9to1) = Cc1c2oc3c(C)ccc(C(=O)[*:1])c3nc-2c(C(=O)[*:2])c(N)c1=O; NMeV = CN[C@H](C(=O)O)C(C)C; Sar = CNCC(=O)O

[
  {
    "MOLECULE": "Cc1c2oc3c(C)ccc(C(=O)N[C@@H]4C(=O)N[C@H](C(C)C)C(=O)N5CCC[C@H]5C(=O)N(C)CC(=O)N(C)[C@@H](C(C)C)C(=O)O[C@@H]4C)c3nc-2c(C(=O)N[C@@H]2C(=O)N[C@H](C(C)C)C(=O)N3CCC[C@H]3C(=O)N(C)CC(=O)N(C)[C@@H](C(C)C)C(=O)O[C@@H]2C)c(N)c1=O [DACTINOMYCIN] (I: T[dV]P[Sar][NMeV] / II: T[dV]P[Sar][NMeV]; ester I:1-I:C, II:1-II:C; linker I:N-II:N via Actinocin(9to1))",
    "activity at 100 µM": "69%"
  }
]
